Target: recombinant PGAM1 (Homo sapiens, UniProt P18669)
Sequence (P18669 whole entry): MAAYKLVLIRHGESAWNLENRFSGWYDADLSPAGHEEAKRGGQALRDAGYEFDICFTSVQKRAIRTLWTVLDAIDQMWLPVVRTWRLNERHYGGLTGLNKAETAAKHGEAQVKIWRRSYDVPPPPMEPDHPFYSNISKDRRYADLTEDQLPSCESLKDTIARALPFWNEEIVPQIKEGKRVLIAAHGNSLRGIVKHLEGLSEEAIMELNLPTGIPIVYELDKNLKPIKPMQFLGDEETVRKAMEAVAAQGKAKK
Test: PGAM1 enzyme activity assay
QUANTITY: pEC50
Lab note — pEC50 values are minus log10 of concentrations in M.

Value sought: pEC50, system recombinant PGAM1 (Homo sapiens, UniProt P18669), item O=C(COP(=O)(O)O)[C@@H](O)[C@H](O)[C@H](O)COP(=O)(O)O [FBP, fructose-1,6-bisphosphate] . Result: 3.32

* * *

Target protein (sequence): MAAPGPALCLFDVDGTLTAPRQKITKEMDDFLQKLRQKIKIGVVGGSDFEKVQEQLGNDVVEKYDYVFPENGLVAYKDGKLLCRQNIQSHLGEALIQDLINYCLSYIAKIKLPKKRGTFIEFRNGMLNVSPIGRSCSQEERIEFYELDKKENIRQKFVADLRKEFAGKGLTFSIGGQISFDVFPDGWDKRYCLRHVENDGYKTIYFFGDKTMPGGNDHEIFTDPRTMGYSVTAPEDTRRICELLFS
QUANTITY: Kd (µM)
Quick reminder: number only, in µM, skip the unit.

Kd recorded for this compound, O=C(COP(=O)(O)O)[C@@H](O)[C@H](O)[C@H](O)COP(=O)(O)O [FBP, fructose-1,6-bisphosphate] , is 247
